settings: in ethanol, 293.15 K
observable: solubility (mole fraction)
Please respond with just the number, no unit label.

Reported solubility (mole fraction) of `CC(C)[C@H](N)C(=O)O` : 1.18e-05

---

conditions: in ethanol, 303.75 K
observable: solubility (mole fraction)

Please fill in: solubility (mole fraction) reported for `CC(C)[C@H](N)C(=O)O` = 2.36e-05

---

conditions: in DMF, 323.15 K
observable: solubility (mole fraction)

The reported solubility (mole fraction) of the compound `CC(C)[C@H](N)C(=O)O` was 7.48e-06

---

details: in water, 313.15 K
observable: solubility (mole fraction)

Documented solubility (mole fraction) of `CC(C)[C@H](N)C(=O)O` : 0.0101
